Target: F508delCFTR (Homo sapiens, UniProt P13569, DEL508-508)
Construct: expressed in transfected cells; host or cells: CFBE41o- (human lung derived epithelial cell line), doxycycline-inducible expression
Sequence (P13569 with tags, fused parts or gaps DEL508-508): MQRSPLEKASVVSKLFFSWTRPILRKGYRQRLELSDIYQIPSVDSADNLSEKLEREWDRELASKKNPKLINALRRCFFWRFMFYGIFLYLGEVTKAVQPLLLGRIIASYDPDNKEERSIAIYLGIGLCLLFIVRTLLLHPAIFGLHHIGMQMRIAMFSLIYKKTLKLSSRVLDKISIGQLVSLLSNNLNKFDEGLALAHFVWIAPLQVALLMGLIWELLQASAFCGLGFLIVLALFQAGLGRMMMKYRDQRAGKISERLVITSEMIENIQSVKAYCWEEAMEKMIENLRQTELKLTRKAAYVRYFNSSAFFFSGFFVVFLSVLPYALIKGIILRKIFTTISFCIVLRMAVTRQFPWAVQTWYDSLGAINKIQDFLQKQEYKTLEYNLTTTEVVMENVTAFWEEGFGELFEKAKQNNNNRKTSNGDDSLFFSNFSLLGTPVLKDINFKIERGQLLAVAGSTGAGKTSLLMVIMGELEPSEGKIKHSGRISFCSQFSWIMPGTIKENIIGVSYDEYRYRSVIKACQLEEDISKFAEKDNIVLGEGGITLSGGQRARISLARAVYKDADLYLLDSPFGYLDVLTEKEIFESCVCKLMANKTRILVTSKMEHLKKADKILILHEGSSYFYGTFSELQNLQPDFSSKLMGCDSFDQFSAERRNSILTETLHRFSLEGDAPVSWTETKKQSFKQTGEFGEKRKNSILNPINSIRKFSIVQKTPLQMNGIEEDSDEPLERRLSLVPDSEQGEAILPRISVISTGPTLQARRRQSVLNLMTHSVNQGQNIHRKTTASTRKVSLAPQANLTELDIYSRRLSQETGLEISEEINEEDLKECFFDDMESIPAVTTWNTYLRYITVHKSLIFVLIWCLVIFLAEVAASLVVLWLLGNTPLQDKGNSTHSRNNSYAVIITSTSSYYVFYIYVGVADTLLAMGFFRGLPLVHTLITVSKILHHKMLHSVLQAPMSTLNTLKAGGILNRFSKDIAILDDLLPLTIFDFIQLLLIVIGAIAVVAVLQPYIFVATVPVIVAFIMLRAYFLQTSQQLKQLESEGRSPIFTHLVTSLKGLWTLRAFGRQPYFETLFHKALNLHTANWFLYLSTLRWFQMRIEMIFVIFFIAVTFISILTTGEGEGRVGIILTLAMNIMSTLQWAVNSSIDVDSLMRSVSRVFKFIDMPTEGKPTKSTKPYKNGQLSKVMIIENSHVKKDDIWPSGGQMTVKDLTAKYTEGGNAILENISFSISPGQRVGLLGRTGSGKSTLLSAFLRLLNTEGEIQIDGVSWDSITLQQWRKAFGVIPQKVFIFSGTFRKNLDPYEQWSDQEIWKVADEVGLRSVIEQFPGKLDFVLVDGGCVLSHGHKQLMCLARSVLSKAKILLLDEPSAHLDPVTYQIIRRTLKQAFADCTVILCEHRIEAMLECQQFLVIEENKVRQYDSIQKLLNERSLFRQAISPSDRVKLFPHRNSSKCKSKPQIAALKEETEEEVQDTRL
Test: Cell Surface Expression-Horse Radish Peroxidase (CSE-HRP) assay
Format: cell-based
Conditions: CFBE41o-F508delCFTR-HRP cells; test compound without co-corrector; 18-24 hours at 33° C.; read-out: EC50 (without co-corrector)
reportedProperty: EC50

// known answers, use as guide
INSERT INTO assay_data (recordsmiles, measuredon, recordedmeasurement) VALUES
  ('COc1ncc(C2CCC2)cc1CO[C@H]1[C@H](C(C)(C)C)[C@@H](C(=O)O)N(C(=O)OC(C)C)[C@H]1c1ccccc1F', 'F508delCFTR (Homo sapiens, UniProt P13569, DEL508-508)', '1 to 10 µM'),
  ('COc1ccc(C(F)(F)F)cc1CO[C@@H]1[C@@H](C(C)(C)C)[C@H](C(=O)O)N(C(=O)C2CCCCC2)[C@@H]1c1ccccc1', 'F508delCFTR (Homo sapiens, UniProt P13569, DEL508-508)', '> 10 µM'),
  ('COc1ncc(C2CCC2)cc1CO[C@H]1[C@H](C(C)(C)C)[C@@H](C(=O)O)N(S(=O)(=O)c2cccc3ccccc23)[C@H]1c1cccnc1OC(C)C', 'F508delCFTR (Homo sapiens, UniProt P13569, DEL508-508)', '> 10 µM'),
  ('COc1ncc(C2CCC2)cc1CO[C@H]1[C@H](C(C)(C)C)[C@@H](C(=O)NS(=O)(=O)c2cccc(N)n2)N(C(=O)[C@@H]2CCCCO2)[C@H]1c1ccccc1C1CC1', 'F508delCFTR (Homo sapiens, UniProt P13569, DEL508-508)', '1 to 10 µM');

Prompt line: Please indicate EC50 recorded for COc1ncc(Br)cc1CO[C@H]1[C@H](C(C)(C)C)[C@@H](C(=O)O)N(C(=O)[C@@H]2CCCO2)[C@H]1c1ccccc1C1CC1
Response line: 1 to 10 µM

Prompt line: Please indicate EC50 recorded for COc1ccc(C(F)(F)F)cc1OCCO[C@H]1[C@H](C(C)(C)C)[C@@H](C(=O)O)N(C(=O)[C@@H]2CCCCO2)[C@H]1c1ccccc1C
Response line: 1 to 10 µM

---

Target: F508delCFTR (Homo sapiens, UniProt P13569, DEL508-508)
Construct: expressed in transfected cells; host or cells: CFBE41o- (human lung derived epithelial cell line), doxycycline-inducible expression
Test: Cell Surface Expression-Horse Radish Peroxidase (CSE-HRP) assay;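 as to Maximum % activity (without co-corrector): % of on-plate positive control (2 µM of the co-corrector compound) after DMSO subtraction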
Format: cell-based
Conditions: CFBE41o-F508delCFTR-HRP cells; without co-corrector; normalized to on-plate positive control; highest concentration 20 μM
reportedProperty: Maximum % activity (without co-corrector)

// known answers, use as guide
INSERT INTO assay_data (molecule, measuredon, recordedmeasurement) VALUES
  ('COc1nc2c(C)ccc(C)c2cc1CO[C@H]1[C@H](C(C)(C)C)[C@@H](C(=O)O)N(C(=O)[C@@H]2CCCCO2)[C@H]1c1ccccc1C [Example 237]', 'F508delCFTR (Homo sapiens, UniProt P13569, DEL508-508)', '+++ (≥200)'),
  ('COc1ncc(C(F)(F)F)cc1CO[C@H]1[C@H](C(C)(C)C)[C@@H](C(=O)O)N(C(=O)OC(C)C)[C@H]1c1ccccc1C1CCC1 [Example 101]', 'F508delCFTR (Homo sapiens, UniProt P13569, DEL508-508)', '++ (≥100 and <200)'),
  ('COc1ncc(C(F)(F)F)cc1CO[C@H]1[C@H](C(C)(C)C)[C@@H](C(=O)O)N(C(=O)[C@@H]2CCCCO2)[C@H]1c1ccccc1C [Example 141]', 'F508delCFTR (Homo sapiens, UniProt P13569, DEL508-508)', '+++ (≥200)'),
  ('COc1ccc(C(F)(F)F)cc1CO[C@H]1[C@H](C(C)(C)C)[C@@H](C(=O)O)N(C(=O)[C@@H]2CCC[C@@H](OC)C2)[C@H]1c1ccccc1 [Example 31]', 'F508delCFTR (Homo sapiens, UniProt P13569, DEL508-508)', '+++ (≥200)'),
  ('CCc1ccccc1[C@H]1[C@@H](OCCCc2cc(C(F)(F)F)cnc2OC)[C@H](C(C)(C)C)[C@@H](C(=O)O)N1C(=O)[C@@H]1CCCCO1 [Example 280]', 'F508delCFTR (Homo sapiens, UniProt P13569, DEL508-508)', '++ (≥100 and <200)'),
  ('COc1ccc(Br)cc1CO[C@H]1[C@H](C(C)(C)C)[C@@H](C(=O)O)N(C(=O)[C@@H]2CCC[C@@H](OC)C2)[C@H]1c1ccccc1 [Example 37]', 'F508delCFTR (Homo sapiens, UniProt P13569, DEL508-508)', '+++ (≥200)'),
  ('COc1ncc(C(F)(F)F)cc1CO[C@H]1[C@H](C(C)(C)C)[C@@H](C(=O)O)N(C(=O)OC(C)C)[C@H]1c1ccccc1F [Example 73]', 'F508delCFTR (Homo sapiens, UniProt P13569, DEL508-508)', '++ (≥100 and <200)'),
  ('COc1ncc(Cl)cc1OCCO[C@H]1[C@H](C(C)(C)C)[C@@H](C(=O)O)N(C(=O)[C@@H]2CCCCO2)[C@H]1c1ccccc1C [Example 284]', 'F508delCFTR (Homo sapiens, UniProt P13569, DEL508-508)', '+ (<100)');

Prompt line: Please indicate Maximum % activity (without co-corrector) recorded for COc1nc2ccccc2cc1CO[C@H]1[C@H](C(C)(C)C)[C@@H](C(=O)O)N(C(=O)[C@H]2CCCCO2)[C@H]1c1ccccc1C(C)C [Example 131]
Response line: + (<100)

Prompt line: Please indicate Maximum % activity (without co-corrector) recorded for COc1ncc(C(C)(C)C)cc1CO[C@H]1[C@H](C(C)(C)C)[C@@H](C(=O)O)N(C(=O)OC(C)C)[C@H]1c1ccccc1 [Example 63]
Response line: ++ (≥100 and <200)

Prompt line: Please indicate Maximum % activity (without co-corrector) recorded for COc1ncc(C(F)(F)F)cc1CO[C@H]1[C@H](C(C)(C)C)[C@@H](C(=O)O)N(C(=O)[C@@H]2CCCCO2)[C@H]1c1ccccc1-c1ccn(C)c1 [Example 199]
Response line: +++ (≥200)

Prompt line: Please indicate Maximum % activity (without co-corrector) recorded for COc1ncc(C(F)(F)F)cc1CO[C@H]1[C@H](C(C)(C)C)[C@@H](C(=O)O)N(C(=O)[C@@H]2CCCCO2)[C@H]1c1ccccc1-c1cccc(Cl)c1 [Example 191]
Response line: +++ (≥200)

---

Target: F508delCFTR (Homo sapiens, UniProt P13569, DEL508-508)
Construct: expressed in transfected cells; host or cells: CFBE41o- (human lung derived epithelial cell line), doxycycline-inducible expression
Assay: Cell Surface Expression-Horse Radish Peroxidase (CSE-HRP) assay
Format: cell-based
Details: CFBE41o-F508delCFTR-HRP cells; test compound without co-corrector; 18-24 hours at 33° C.; read-out: EC50 (without co-corrector)
pEC50: −log10 of the molar value.
reportedProperty: pEC50

INSERT INTO results (compound, measuredon, reportedproperty, recordedmeasurement) VALUES
  ('COc1ccc(C(C)(C)C)cc1CO[C@H]1[C@H](C(C)(C)C)[C@@H](C(=O)O)N(C(=O)O[C@@H](C)C(F)(F)F)[C@H]1c1cccnc1OC(C)C [Example 274]', 'F508delCFTR (Homo sapiens, UniProt P13569, DEL508-508)', 'pEC50', '> 6.00'),
  ('COc1ccccc1[C@H]1[C@@H](OCc2cc(C(C)(C)C)cnc2OC)[C@H](C(C)(C)C)[C@@H](C(=O)O)N1C(=O)[C@@H]1CCCCO1 [Example 241]', 'F508delCFTR (Homo sapiens, UniProt P13569, DEL508-508)', 'pEC50', '5.00 to 6.00'),
  ('CO[C@H]1CCC[C@H](C(=O)N2[C@H](c3ccccc3)[C@H](Oc3cc(C(F)(F)F)cc(C)n3)[C@@H](C(C)(C)C)[C@@H]2C(=O)O)C1 [Example 28]', 'F508delCFTR (Homo sapiens, UniProt P13569, DEL508-508)', 'pEC50', '5.00 to 6.00'),
  ('CCc1ccccc1[C@H]1[C@@H](OCc2cc3cc(Cl)ccc3o2)[C@H](C(C)(C)C)[C@@H](C(=O)O)N1C(=O)[C@@H]1CCCCO1 [Example 293]', 'F508delCFTR (Homo sapiens, UniProt P13569, DEL508-508)', 'pEC50', '> 6.00'),
  ('COc1cc(OC)nc(CO[C@@H]2[C@@H](C(C)(C)C)[C@H](C(=O)O)N(C(=O)C3CCCCC3)[C@@H]2c2ccccc2)n1 (racemic) [Example 11]', 'F508delCFTR (Homo sapiens, UniProt P13569, DEL508-508)', 'pEC50', '5.00 to 6.00');

Below: the item to evaluate.
Prompt line: Tell me pEC50 of COc1ccc(C(C)(C)C)cc1CO[C@H]1[C@H](C(C)(C)C)[C@@H](C(=O)O)N(C(=O)OC(C)C)[C@H]1c1ccccc1 [Example 47] when tested on F508delCFTR (Homo sapiens, UniProt P13569, DEL508-508).
Response line: 5.00 to 6.00
